# credit: paper PMC11901381

System: L. major strain NIH S intramacrophage amastigotes
Assay: Intramacrophage antileishmanial resazurin assay
Assay type: cell-based, Leishmania major
Settings: SI5 = IC50 Vero/static IC50 amastigote, L. major
Rule: 1 (yes) for SI5 not less than 20, 0 (no) for anything less.

compound_smiles=O=C1NC(=S)S/C1=C\c1c[nH]c2ccc([N+](=O)[O-])cc12 label_class="1 (yes)"
compound_smiles=O=Cc1cn(Cc2ccc(F)cc2)c2ccc([N+](=O)[O-])cc12 label_class="0 (no)"
compound_smiles=O=C1NC(=S)S/C1=C\c1cn(Cc2ccccc2)c2ccc([N+](=O)[O-])cc12 label_class="1 (yes)"
compound_smiles=Cc1ccc(Cn2cc(/C=C3\SC(=S)NC3=O)c3cc([N+](=O)[O-])ccc32)cc1 label_class="1 (yes)"
compound_smiles=O=C1CSC(=S)N1/N=C/c1cn(Cc2ccccc2)c2ccc([N+](=O)[O-])cc12 label_class="1 (yes)"
compound_smiles=C#CCn1cc(/C=N/N2C(=O)CSC2=S)c2cc([N+](=O)[O-])ccc21 label_class="0 (no)"
compound_smiles=O=C1NC(=S)S/C1=C\c1cn(Cc2cccc(Cl)c2)c2ccc([N+](=O)[O-])cc12 label_class="0 (no)"
compound_smiles=C#CCn1cc(C=O)c2cc([N+](=O)[O-])ccc21 label_class="1 (yes)"
compound_smiles=O=Cc1cn(Cc2cccc(Cl)c2)c2ccc([N+](=O)[O-])cc12 label_class="0 (no)"
